Tested on: MS2 coat protein
Assay: apparent KD of MS2 coat protein; designed switch direction (-1 OFF switch, 1 ON switch): -1; higher = weaker reporter binding
Conditions: input ligand: FMN 200 uM

>  <Chain sequence>
UCGAUGUGAGGAUAUAUAUGCAGUAGUCCUUAUGUUUUAUAACUUGAGGAUCACCCAAGUAGAAGGCGCGACGU [JR_Ex2_Sub060] (Eterna round: R97, puzzle: Exclusion 2)

>  <apparent KD of MS2 coat protein, nM>
49.2

$$$$
>  <Chain sequence>
CUGCUGGAGUUUCGCUUUGGUCGUACAUGAGGAUCACCCAUGUAGGAUAUGGUAAAAUUCGCCUGCUAGAAGGAUAGAGUGGUC [salish99_ExNG3_r04_620] (Eterna round: R96, puzzle: Exclusion NG 3)

>  <apparent KD of MS2 coat protein, nM>
48.1

$$$$
>  <Chain sequence>
GAGAGCUGAGGAUAUACAUGAGGAUCACCCAUGUACCACCUUGCCGGCACAGAUCCUUGUAGAAGGCGGCUCUA [Eternabot (L2) Solution 57] (Eterna round: R97, puzzle: Exclusion 3)

>  <apparent KD of MS2 coat protein, nM>
51.3

$$$$
>  <Chain sequence>
CUGUUUUCCGCAGGAUAUGCUCCUCCAUUAUUAGCAGAAGGGCGUUGAACAUGAGGAUCACCCAUGUAUGUAAUUGAUUAUUGC [JR_ExcNG1_Sub071] (Eterna round: R96, puzzle: Exclusion NG 1)

>  <apparent KD of MS2 coat protein, nM>
54.3

$$$$
>  <Chain sequence>
ACAUGUUGCGCAGGAUAUGGGACACAUGAGGAUCACCCAUGUGGUUACAUGUCUUACCAAGCGUCCCAGAAGGGUGUGAACAUG [Ex NG2 #32] (Eterna round: R96, puzzle: Exclusion NG 2)

>  <apparent KD of MS2 coat protein, nM>
26

$$$$

====

System: MS2 coat protein
Assay: apparent KD of MS2 coat protein; designed switch direction (-1 OFF switch, 1 ON switch): -1; higher = weaker reporter binding
Conditions: input ligand: microRNA oligo, concentration not stated
Quick rule: apparent KD of MS2 coat protein of at least 40 nM means 1.0, below that means 0.0.

>  <Chain sequence>
UGUUGUCGCGCAGGAUAUGUAUGAGGAUCACCCAUAAGAGUAUAUUUACCAUGAGGAUCACCCAUGUAGAAGGGCGGGACAACA [pwkr exNG2 2xF5 1xFMN.11] (Eterna round: R96, puzzle: Exclusion NG 2)

>  <Label value>
1.0

$$$$
>  <Chain sequence>
CCUAGUUGGUAAGGAUAUCCUACACUGUUCUGACCCGUGCAAGCUACAUGAGGAUCACCCAUGUGGGAGAAGGUGCGUCAACGC [Design 12] (Eterna round: R96, puzzle: Exclusion NG 2)

>  <Label value>
0.0

$$$$
>  <Chain sequence>
CCCAGUUAGUGAGGAUAUCUUACAUGAGGAUCACCCAUGUAAUAAAUGAGGAUUUCGGGUGUCUAAGAGAAGGCACGGAUAGGC [Ostracism 25 - Jieux - Exclusion NG 2] (Eterna round: R96, puzzle: Exclusion NG 2)

>  <Label value>
0.0

$$$$
>  <Chain sequence>
CUGAACCCGGUAGGAUAUAUUGUGGGCAGGCGUGGAACGACAUGAGGAUCACCCAUGUAAUUUAGGUAGAAGGGCCGAGAGAUU [Excl-NG2-LRO13] (Eterna round: R96, puzzle: Exclusion NG 2)

>  <Label value>
0.0

$$$$
>  <Chain sequence>
UCGCUCCGUGUAGGAUAUCGUUGUAUGAUGCGGCGAGAAGGACAUGAGGAUCACCCAUGUAUGUUAUUAUCACGCGUGGCGCAA [Design 65] (Eterna round: R96, puzzle: Exclusion NG 1)

>  <Label value>
0.0

$$$$
>  <Chain sequence>
CGCCGAGUGUUAGGAUAUUACAAGCAUAAGCGGUAAGAAGGAACAUGAGGAUCACCCAUGUACUGUCCCAUCGGGACAGGUUUC [Qule] (Eterna round: R96, puzzle: Exclusion NG 1)

>  <Label value>
1.0

$$$$
>  <Chain sequence>
GUCCUCAUGACAUGAGGAUCACCCAUGUAUUAUUUGUUAACUGAGGAUAUACUCUUAAUUUUUAUGUAGAAGGCAGAUUCGGUC [JR_ExcNG3_Sub020] (Eterna round: R96, puzzle: Exclusion NG 3)

>  <Label value>
0.0

$$$$
>  <Chain sequence>
UACAUGAGGAUCACCCAUGUCUUUUCGUGUAUGGUACCCAUCUAGGAUAUCGUGUUAUUUAACCACGAGAAGGAGAGUAUCAAU [MOD5 Solution 21 by JMF] (Eterna round: R96, puzzle: Exclusion NG 3)

>  <Label value>
1.0

$$$$

====

Test system: MS2 coat protein
Experiment: apparent KD of MS2 coat protein; designed switch direction (-1 OFF switch, 1 ON switch): -1; higher = weaker reporter binding
Settings: Eterna round: R95; input ligand: microRNA oligo, concentration not stated
Class membership depends on apparent KD of MS2 coat protein alone; the intervals are low bracket (below 20 nM), middle bracket (20 nM to below 200 nM), high bracket (200 nM or more)

>  <Chain sequence>
CUAUUCCGAGGAUAUACAUGAGGAUCACCCAUGUCGGGCCUCUGCGUUUAGCGCGUAAGUAGAAGGUGGGUUUC [JL Riri mod 8] (puzzle: Exclusion 3)

>  <System under test>
MS2 coat protein

>  <Label value>
middle bracket

$$$$
>  <Chain sequence>
AGAGAGUCAGGAUAUCGGAGGGCGAGGAGAGGAGAGAGAGACGAGAAGGGACAUGAGGAUCACCCAUGUAGGUG [JR_Exclusion4)Sub018] (puzzle: Exclusion 4)

>  <System under test>
MS2 coat protein

>  <Label value>
high bracket

$$$$
>  <Chain sequence>
GAUUGACAUGAGGAUCACCCAUGUGAGGAUAUCGGCCGGACCUUGUUAGCUUCCAUCGCGAGAAGGUACAUAGG [Exclusion 1 V34] (puzzle: Exclusion 1)

>  <System under test>
MS2 coat protein

>  <Label value>
low bracket

$$$$
>  <Chain sequence>
GUGUAGUAAGGAUAUACAUGAGGAUCACCCAUGUGAGUAAGAUAGAAUAAGAUAAAGUGUAGAAGGUAUAGUGU [Excluse me!!! 16 - Jieux - Exclusion 3] (puzzle: Exclusion 3)

>  <System under test>
MS2 coat protein

>  <Label value>
middle bracket

$$$$
>  <Chain sequence>
GUAAUUAUAUAGGAUAUCGAACUUAUAAUUUAACGAGAAGGAUGAACAUGAGGAUCACCCAUGUGGUAUCAUGG [JL-ex6-3.07] (puzzle: Exclusion 6)

>  <System under test>
MS2 coat protein

>  <Label value>
high bracket

$$$$
>  <Chain sequence>
AUACCAUGCCGCCUAAUAGCUUUUUGCUCGUCUUAUAAAACAUGAGGAUCACCCAUGUAAAACAUGUGGCGUGACCC [Maridi] (puzzle: Sensor v3, turn-off variant 2)

>  <System under test>
MS2 coat protein

>  <Label value>
low bracket

$$$$
>  <Chain sequence>
CUAGAUCUUCGGAUCUAGUACAUGAGGAUCACCCAUGUUACGAGUUGAUCCUCAUACAAGCUUUUUGCUCGUCUUAU [Sensor v3 - Turn-off variant 1 - 25] (puzzle: Sensor v3, turn-off variant 1)

>  <System under test>
MS2 coat protein

>  <Label value>
low bracket

$$$$
>  <Chain sequence>
AUUUUAAUAUAGGAUAUCGAAUUUAUUAAUUAUCGAGAAGGAUAAACAUGAGGAUCACCCAUGUGGUAUCAUGG [Mat - Exclusion 6 - JL Mod - D38] (puzzle: Exclusion 6)

>  <System under test>
MS2 coat protein

>  <Label value>
high bracket

$$$$
>  <Chain sequence>
GCCGAUUAAGUGAGGAUAUACCUAUGGAUACAUAGGUAGAAGGUACAUGAGGAUCACCCAUGUUCCUCAACGGC [Fiskers BMX 4 - 9] (puzzle: Brourd's mod of Exclusion 4)

>  <System under test>
MS2 coat protein

>  <Label value>
low bracket

$$$$

====

Tested on: MS2 coat protein
Test: apparent KD of MS2 coat protein; designed switch direction (-1 OFF switch, 1 ON switch): -1; higher = weaker reporter binding
Conditions: Eterna round: R95; input ligand: none
Cut-off 60 nM on apparent KD of MS2 coat protein, inclusive. At or above means condition met; below means condition not met.

>  <Chain sequence>
AAAUAAUAGAUAAAAUAAAACAUGAGGAUCACCCAUGUAGGCUGAUGAGGGUGAAACAAGCUUUUUGCUCGUCUUAU (puzzle: Sensor v3, turn-off variant 1)

>  <Label value>
condition met

$$$$
>  <Chain sequence>
AGUACUAACACGUCAGUGUUAGUACAAUAAGCUUGUGAAACAUGAGGAUCACCCAUGUCCUCAUAAGCUCGUCUUAU [salish99_TOv2_r3_062] (puzzle: Sensor v3, turn-off variant 2)

>  <Label value>
condition not met

$$$$
>  <Chain sequence>
AGUAACCGUCACGAAAGUGAUGGUUACACAAGCAUAUGUACAUGAGGAUCACCCAUGUCCUCAAUUGCUCGUCUUAU [Sensor 3 - 54] (puzzle: Sensor v3, turn-off variant 2)

>  <Label value>
condition met

$$$$
>  <Chain sequence>
GAUUACUGCAAGCUUUGGAACAUGAGGAUCACCCAUGUUCGUCUUAUUGAUCUAGGUACGCUGACGUACCUAGAUCU [JL-sv1-2.30 Brourd mod] (puzzle: Sensor v3, turn-off variant 1)

>  <Label value>
condition not met

$$$$
>  <Chain sequence>
ACGUGAUAUCUGUCGGUGGACAUGAGGAUCACCCAUGUAAGCUUUCUGCUCGUCUUAUAACCCGGUGACAGACCUUC [Diteerquus] (puzzle: Sensor v3, turn-off variant 1)

>  <Label value>
condition not met

$$$$
>  <Chain sequence>
GGUACUAACACGAAAGUGUUAGUACUAUAAGCUUGUGUUACAUGAGGAUCACCCAUGUCCUCAUAGGCUCGUCUUGU [JL-sv3-2.17 mat747 mod] (puzzle: Sensor v3, turn-off variant 2)

>  <Label value>
condition met

$$$$
>  <Chain sequence>
GGUUGACAUGAGGAUCACCCAUGUGAGGAUAUGCGAGAGAAAAAAGUGAGGAAGAAACGCAGAAGGCGCUGUCG [salish99-ex1_r3_010] (puzzle: Exclusion 1)

>  <Label value>
condition met

$$$$
>  <Chain sequence>
UGUACUAACACGGAAGUGUUAGUACUAUAAGCUUGUGUUACAUGAGGAUCACCCAUGUCCUCAUAAGCUCGUCUUAA [Mat - Sensor v3 - Turn-off var 2 - D73] (puzzle: Sensor v3, turn-off variant 2)

>  <Label value>
condition not met

$$$$
>  <Chain sequence>
GAUUAUGCGAGCUUUAGGGACAUGAGGAUCACCCAUGUUCGUCUUAUUGGUCUGGAUACACUAACAUACCUAAAUCU [JMF 14] (puzzle: Sensor v3, turn-off variant 1)

>  <Label value>
condition not met

$$$$
